Assayed Target: Delta-type opioid receptor (Homo sapiens, UniProt P41143)
Sequence (P41143 whole entry): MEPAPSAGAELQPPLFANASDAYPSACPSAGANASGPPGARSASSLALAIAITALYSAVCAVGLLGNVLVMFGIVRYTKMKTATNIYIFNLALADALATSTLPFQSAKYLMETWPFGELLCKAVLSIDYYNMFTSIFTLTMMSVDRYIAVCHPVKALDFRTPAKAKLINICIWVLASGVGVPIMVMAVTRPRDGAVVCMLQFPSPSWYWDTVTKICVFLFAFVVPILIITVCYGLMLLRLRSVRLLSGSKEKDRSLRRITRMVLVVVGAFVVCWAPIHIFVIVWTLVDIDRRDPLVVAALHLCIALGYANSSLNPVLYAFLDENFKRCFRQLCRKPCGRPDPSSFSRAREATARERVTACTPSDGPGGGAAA
Protocol Summary: Binding affinity against Opioid receptor delta 1 expressed in CHO cells using [3H]Naltrindole as radioligand
pKi: −log10 of the molar value.
Value Type: pKi

- Chem Smiles: "NC(=O)c1ccc2c(c1O)[C@]13CCN(CC4CC4)[C@H](C2)[C@]1(O)CCC(=O)C3"
  Numeric Readout: 8.59
- Chem Smiles: "COc1c(C(N)=O)ccc2c1[C@]13CCN(CC4CC4)[C@H](C2)[C@]1(O)CCC(=O)C3"
  Numeric Readout: 6.32
- Chem Smiles: "O=C1CC[C@@]2(O)[C@H]3Cc4ccc(O)c(O)c4[C@@]2(CCN3CC2CC2)C1"
  Numeric Readout: 6.89
- Chem Smiles: "NC(=O)c1ccc2c(c1O)[C@]13CCN(CC4CCC4)[C@H](C2)[C@]1(O)CCC(=O)C3"
  Numeric Readout: 8.38
- Chem Smiles: "NC(=O)c1ccc2c3c1O[C@H]1C(=O)CC[C@@]4(O)[C@@H](C2)N(CC2CC2)CC[C@]314"
  Numeric Readout: 6.26

---

Read-out record for Kappa-type opioid receptor (Homo sapiens, UniProt P41145): Ki

- Chem Smiles: "NC(=O)c1ccc2c(c1O)[C@]13CCN(CC4CCC4)[C@H](C2)[C@]1(O)CCC(=O)C3"
  Ki: "0.27 nM"
- Chem Smiles: "O=C1CC[C@@]2(O)[C@H]3Cc4ccc(O)c(O)c4[C@@]2(CCN3CC2CC2)C1"
  Ki: "2.2 nM"
- Chem Smiles: "COc1c(C(N)=O)ccc2c1[C@]13CCN(CC4CC4)[C@H](C2)[C@]1(O)CCC(=O)C3"
  Ki: "23 nM"
- Chem Smiles: "NC(=O)c1ccc2c3c1O[C@H]1C(=O)CC[C@@]4(O)[C@@H](C2)N(CC2CC2)CC[C@]314"
  Ki: "11 nM"
- Chem Smiles: "NC(=O)c1ccc2c(c1O)[C@]13CCN(CC4CC4)[C@H](C2)[C@]1(O)CCC(=O)C3"
  Ki: "0.23 nM"

---

Parameter: Ki. Scope: all listed entries.
Assayed Target: Mu-type opioid receptor (Homo sapiens, UniProt P35372)
Sequence (P35372 whole entry): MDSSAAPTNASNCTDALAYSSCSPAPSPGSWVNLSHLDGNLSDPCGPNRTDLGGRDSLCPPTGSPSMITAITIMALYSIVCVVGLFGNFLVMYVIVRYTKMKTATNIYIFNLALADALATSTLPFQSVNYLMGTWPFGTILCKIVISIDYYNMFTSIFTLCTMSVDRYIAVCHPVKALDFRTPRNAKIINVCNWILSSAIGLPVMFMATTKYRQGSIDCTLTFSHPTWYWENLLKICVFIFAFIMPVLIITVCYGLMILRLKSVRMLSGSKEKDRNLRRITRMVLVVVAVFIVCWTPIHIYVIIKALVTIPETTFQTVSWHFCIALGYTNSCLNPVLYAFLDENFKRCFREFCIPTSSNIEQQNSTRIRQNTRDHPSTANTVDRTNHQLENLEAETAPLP
Value Type: Ki (nM)

- Chem Smiles: "NC(=O)c1ccc2c3c1O[C@H]1C(=O)CC[C@@]4(O)[C@@H](C2)N(CC2CC2)CC[C@]314"
  Value Type: "Ki"
  Numeric Readout: 0.71
- Chem Smiles: "NC(=O)c1ccc2c(c1O)[C@]13CCN(CC4CC4)[C@H](C2)[C@]1(O)CCC(=O)C3"
  Value Type: "Ki"
  Numeric Readout: 0.052
- Chem Smiles: "O=C1CC[C@@]2(O)[C@H]3Cc4ccc(O)c(O)c4[C@@]2(CCN3CC2CC2)C1"
  Value Type: "Ki"
  Numeric Readout: 17
- Chem Smiles: "COc1c(C(N)=O)ccc2c1[C@]13CCN(CC4CC4)[C@H](C2)[C@]1(O)CCC(=O)C3"
  Value Type: "Ki"
  Numeric Readout: 11
